Test system: goosegrass (Eleusine indica)
Test: Test B pre-/postemergence plant response
Assay type: in vivo
Protocol Conditions: Postemergence, 125 g ai/ha; scale 0 to 100 (0 no effect, 100 complete control)
Attribute Measured: Plant response rating, Goosegrass
Answers are plain numbers.

compound=O=C1CCCC(O)=C1C(=O)c1cnc(-c2cc(F)cc(F)c2)n(C2CCCCC2)c1=O attribute_measured="Plant response rating, Goosegrass" recorded_measurement=100
compound=CCCn1c(-c2cc(C)cc(C)c2)ncc(C(=O)C2=C(O)CCCC2=O)c1=O attribute_measured="Plant response rating, Goosegrass" recorded_measurement=70
compound=COc1ccc(-n2c(-c3ccccc3)ncc(C(=O)C3=C(O)CCCC3=O)c2=O)cc1OC attribute_measured="Plant response rating, Goosegrass" recorded_measurement=15
compound="COCCn1c(-c2cccc(F)c2)ncc(C(=O)C2=C(O)C3CCC(C3)C2=O)c1=O (stereo not shown)" attribute_measured="Plant response rating, Goosegrass" recorded_measurement=98
compound=O=C1CCCC(O)=C1C(=O)c1cnc(-c2cccc(F)c2)n(C2CCCCC2)c1=O attribute_measured="Plant response rating, Goosegrass" recorded_measurement=100

For every item below, please supply its Plant response rating, Goosegrass.
1. COCCn1c(-c2cccc(C)c2)ncc(C(=O)C2=C(O)CCCC2=O)c1=O
2. COCCCn1c(-c2cccc(C)c2)ncc(C(=O)C2=C(O)CCCC2=O)c1=O
3. CCCn1c(-c2ccsc2)ncc(C(=O)C2=C(O)C3CCC(C3)C2=O)c1=O (stereo not shown)
4. CC1(C)CC(=O)C(C(=O)c2cnc(-c3ccccc3)n(-c3ccccc3)c2=O)=C(O)C1
5. COCCn1c(-c2cc(F)cc(F)c2)ncc(C(=O)C2=C(O)CCCC2=O)c1=O

(A)
1: 75; 2: 80; 3: 75; 4: 95; 5: 85

* * *

Tested on: woolly cupgrass (Eriochloa villosa)
Test: Test B pre-/postemergence plant response
Format: in vivo
Protocol Conditions: Postemergence, 125 g ai/ha; scale 0 to 100 (0 no effect, 100 complete control)
Can you tell me Plant response rating, Cupgrass, Woolly for the items I'm about to list?
Answers are plain numbers.

These solved cases illustrate the format of a correct answer.
compound="COCCn1c(-c2cccc(C)c2)ncc(C(=O)C2=C(O)C3CCC(C3)C2=O)c1=O (stereo not drawn) [Compound 233]" recorded_measurement=100
compound="O=C1CCCC(O)=C1C(=O)c1cnc(-c2cccs2)n(C2CCCCC2)c1=O [Compound 189]" recorded_measurement=75
compound="COCCn1c(-c2cccc(F)c2)ncc(C(=O)C2=C(O)C3CCC(C3)C2=O)c1=O (stereo not drawn) [Compound 235]" recorded_measurement=100
compound="COCCn1c(-c2cccc(Cl)c2)ncc(C(=O)C2=C(O)CCCC2=O)c1=O [Compound 147]" recorded_measurement=80

I'm hoping you can list Plant response rating, Cupgrass, Woolly for every compound here, please.
1. COCCn1c(-c2cc(F)cc(F)c2)ncc(C(=O)C2=C(O)CCCC2=O)c1=O [Compound 119]
2. O=C1CCCC(O)=C1C(=O)c1cnc(-c2ccc(F)cc2)n(C2CCCCC2)c1=O [Compound 197]
3. CC1(C)CC(=O)C(C(=O)c2cnc(-c3ccccc3)n(-c3ccccc3)c2=O)=C(O)C1 [Compound 225]
4. Cc1ccc(Cl)cc1-n1c(-c2cccc(F)c2)ncc(C(=O)C2=C(O)CCCC2=O)c1=O [Compound 184]
5. O=C1CCCC(O)=C1C(=O)c1cnc(-c2cc(F)cc(F)c2)n(C2CCCCC2)c1=O [Compound 181]

(A)
1. 98
2. 90
3. 85
4. 100
5. 100

* * *

Tested on: green foxtail (Setaria viridis)
Test: Test B pre-/postemergence plant response
Assay type: in vivo
Protocol Conditions: Postemergence, 31 g ai/ha; 0 to 100 scale (0 no effect, 100 complete control)
Attribute Measured: Plant response rating, Foxtail, Green
Numbers only.

compound="O=C1CCCC(O)=C1C(=O)c1cnc(-c2cccc(F)c2)n(C2CCCCC2)c1=O [Compound 187]" target_or_test_system="green foxtail (Setaria viridis)" recorded_measurement=65

For every item below, please supply its Plant response rating, Foxtail, Green.
1. CCCn1c(-c2cc(F)cc(F)c2)ncc(C(=O)C2=C(O)CCCC2=O)c1=O [Compound 152]
2. COCCn1c(-c2cccc(C)c2)ncc(C(=O)C2=C(O)C3CCC(C3)C2=O)c1=O (centres unmarked) [Compound 233]

(A)
[75, 85]

* * *

For each of the compounds below, state its Plant response rating, Pigweed.
Test system: pigweed (Amaranthus retroflexus)
Test: Test A pre-/postemergence plant response
Format: in vivo
Protocol Conditions: Preemergence, 125 g ai/ha; 0 to 100 scale, 0 = no effect, 100 = complete control
Numbers only.

Observe how each entry below is paired with its result.
compound=C=CCCn1c(-c2ccccc2)ncc(C(=O)C2=C(O)CCCC2=O)c1=O attribute_measured="Plant response rating, Pigweed" recorded_measurement=70
compound=C=CCn1c(-c2ccccc2)ncc(C(=O)C2=C(O)CCCC2=O)c1=O attribute_measured="Plant response rating, Pigweed" recorded_measurement=50
compound=Cc1ccc(C)c(-n2c(-c3ccccc3)ncc(C(=O)c3cnoc3C3CC3)c2=O)c1 attribute_measured="Plant response rating, Pigweed" recorded_measurement=0

Items follow; give Plant response rating, Pigweed for each.
1. O=C1CCCC(O)=C1C(=O)c1cnc(-c2ccccc2)n(-c2ccc(F)cc2F)c1=O
2. CCCc1ncc(C(=O)C2=C(O)CCCC2=O)c(=O)n1Cc1cccc(OC)c1
3. CCc1cccc(-c2ncc(C(=O)C3=C(O)CCCC3=O)c(=O)n2C2CCCCC2)c1
4. Cc1ccccc1-n1c(-c2ccccc2)ncc(C(=O)C2=C(O)CCCC2=O)c1=O
5. O=C1CCCC(O)=C1C(=O)c1cnc(-c2ccsc2)n(-c2ccccc2)c1=O
6. Cc1ccc(Cl)cc1-n1c(-c2cccc(F)c2)ncc(C(=O)C2=C(O)CCCC2=O)c1=O

(A)
[90, 80, 50, 80, 90, 70]

* * *

Please respond with reported Plant response rating, Bermudagrass for every item in the list.
Test system: bermudagrass (Cynodon dactylon)
Test: Test D pre-/postemergence plant response
Assay type: in vivo
Protocol Conditions: Postemergence, 31 g ai/ha; scale 0 to 100 (0 no effect, 100 complete control)
One number for each entry.

Below: 3 compounds and their reported Plant response rating, Bermudagrass.
compound="O=C1CCCC(O)=C1C(=O)c1cnc(-c2ccccc2)n(CC2CCCO2)c1=O (stereo not shown)" attribute_measured="Plant response rating, Bermudagrass" recorded_measurement=40
compound="COCCn1c(-c2cccc(F)c2)ncc(C(=O)C2=C(O)C3CCC(C3)C2=O)c1=O (stereo not shown)" attribute_measured="Plant response rating, Bermudagrass" recorded_measurement=80
compound="COCCCn1c(-c2cccc(F)c2)ncc(C(=O)C2=C(O)C3CCC(C3)C2=O)c1=O (stereo not shown)" attribute_measured="Plant response rating, Bermudagrass" recorded_measurement=80

Query compound follows.
(Q) # input compound: COCCn1c(-c2cccc(C)c2)ncc(C(=O)C2=C(O)C3CCC(C3)C2=O)c1=O (stereo not shown) ; wanted: its Plant response rating, Bermudagrass
(A) 70

* * *

For each of the compounds below, state its Plant response rating, Surinam Grass.
Test system: Surinam grass (Brachiaria decumbens)
Test: Test B pre-/postemergence plant response
Assay type: in vivo
Protocol Conditions: 31 g ai/ha, postemergence; scale 0 to 100, 0 is no effect, 100 is complete control

compound=CCCCCn1c(-c2ccccc2)ncc(C(=O)C2=C(O)CCCC2=O)c1=O attribute_measured="Plant response rating, Surinam Grass" recorded_measurement=55

Dear colleague, could you please provide Plant response rating, Surinam Grass for the compounds listed below?
1. CCCc1ncc(C(=O)C2=C(O)CCCC2=O)c(=O)n1CC1CCCO1 (stereo not shown)
2. O=C1CCCC(O)=C1C(=O)c1cnc(-c2cccc(Cl)c2)n(-c2ccc(Cl)cc2)c1=O
3. CCCCc1ncc(C(=O)C2=C(O)CCCC2=O)c(=O)n1-c1cccc(C)c1

(A)
20
85
10

* * *

Tested on: ducksalad (Heteranthera limosa)
Test: Test B flooded paddy test
Type: in vivo
Protocol Conditions: 250 g ai/ha; flooded paddy test; visual rating on 0 to 100 scale (0 no effect, 100 complete control) after 13 to 15 days
Attribute Measured: Plant response rating, Flood, Ducksalad
Give bare numbers.

Reference set, count: 2
structure_notation=CCCCn1c(-c2cccc(Br)c2)ncc(C(=O)C2=C(O)CCCC2=O)c1=O recorded_measurement=80
structure_notation=CCc1ccc(-n2c(-c3ccccc3)ncc(C(=O)C3=C(O)CCCC3=O)c2=O)cc1 recorded_measurement=90

Next compound, Plant response rating, Flood, Ducksalad to be filled in.
(Q) Param item = `CCCCn1c(-c2cccc(F)c2)ncc(C(=O)C2=C(O)CCCC2=O)c1=O` ; retrieve measured Plant response rating, Flood, Ducksalad.
(A) 70

* * *

For each record, write down the corresponding Plant response rating, Oat, Wild.
Test system: wild oat (Avena fatua)
Test: Test B pre-/postemergence plant response
Format: in vivo
Protocol Conditions: Postemergence, 62 g ai/ha; scale 0 (no effect) to 100 (complete control); 13 to 15 days

# annotated cases, reported Plant response rating, Oat, Wild shown
molecule="Cc1cc(-n2c(-c3ccccc3)ncc(C(=O)C3=C(O)CCCC3=O)c2=O)ccc1F [Compound 53]" recorded_measurement=70
molecule="Cc1ccccc1-n1c(-c2cccc(Cl)c2)ncc(C(=O)C2=C(O)CCCC2=O)c1=O [Compound 36]" recorded_measurement=75

Hi! Can you tell me Plant response rating, Oat, Wild for each of these molecules?
1. O=C1CCCC(O)=C1C(=O)c1cnc(-c2ccccc2)n(CC2CCCO2)c1=O (stereo not shown) [Compound 59]
2. Cc1c(Cl)cccc1-n1c(-c2ccccc2)ncc(C(=O)C2=C(O)CCCC2=O)c1=O [Compound 40]

(A)
[40, 85]
